Source: patent US20260365670A1

GI50 by entry:
System: Ba/F3 cells expressing EGFR mutations
Test: Cell proliferation assay, Ba/F3 cells expressing EGFR mutations (CellTiter-Glo, 72 hours)
Type: cell-based
Conditions: Mus musculus, BaF3, 72 h, BaF3 cells, EGFR L858R-T790M, CellTiter-Glo, read-out: L858R-T790M/BaF3 GI50
Note: unit nM is implicit; provide only the numeric part.

INSERT INTO assay_data (compound, unit_name, assay_value) VALUES
  ('C[C@@H]1CCCNc2c(cnn2C)-c2cc(cn(C)c2=O)C(=O)Nc2nc3ccc(N4CCN(C)CC4)cc3n2C1 [Example A57]', 'nM', 356),
  ('C[C@@H]1CCCOc2c(cnn2C)-c2cc(cn(C)c2=O)C(=O)Nc2nc3ccc(N4CCN(C)CC4)c(Cl)c3n2C1 [Example A101]', 'nM', 260),
  ('CCn1cc2cc(c1=O)-c1cnn(C)c1OCCC[C@@H](C)Cn1c(nc3ccc(N4CCN(C)CC4)cc31)NC2=O [Example A14]', 'nM', 866),
  ('CCN1CCOc2c(cnn2C)-c2cc(cn(C)c2=O)C(=O)Nc2nc3ccccc3n2C(C)C1 (stereo not shown) [Example A6]', 'nM', 795),
  ('Cn1ncc2c1OCCN1CCCCC(C)(C1)n1c(nc3ccc(N4CCOCC4)cc31)NC(=O)c1cc-2c(=O)n(C)c1 (stereo not shown) [Example A13]', 'nM', 411);

So what does the record say about GI50 for C[C@@H]1CCCOc2c(cnn2C)-c2cc(cn(C)c2=O)C(=O)Nc2nc3ccc(Br)cc3n2C1 [Example M3] ? 982

Record: C[C@@H]1CCCOc2c(cnn2C)-c2cc(cn(C)c2=O)C(=O)Nc2nc3ccc(N4CCNCC4)cc3n2C1 [Example A55] 52

###

Molecular target: EGFR (d746-750 C797S) (Homo sapiens, UniProt P00533, C797S/DEL746-750)
Construct: purchased signalchem
Sequence (P00533 with tags, fused parts or gaps DEL746-750/C797S limits assumed): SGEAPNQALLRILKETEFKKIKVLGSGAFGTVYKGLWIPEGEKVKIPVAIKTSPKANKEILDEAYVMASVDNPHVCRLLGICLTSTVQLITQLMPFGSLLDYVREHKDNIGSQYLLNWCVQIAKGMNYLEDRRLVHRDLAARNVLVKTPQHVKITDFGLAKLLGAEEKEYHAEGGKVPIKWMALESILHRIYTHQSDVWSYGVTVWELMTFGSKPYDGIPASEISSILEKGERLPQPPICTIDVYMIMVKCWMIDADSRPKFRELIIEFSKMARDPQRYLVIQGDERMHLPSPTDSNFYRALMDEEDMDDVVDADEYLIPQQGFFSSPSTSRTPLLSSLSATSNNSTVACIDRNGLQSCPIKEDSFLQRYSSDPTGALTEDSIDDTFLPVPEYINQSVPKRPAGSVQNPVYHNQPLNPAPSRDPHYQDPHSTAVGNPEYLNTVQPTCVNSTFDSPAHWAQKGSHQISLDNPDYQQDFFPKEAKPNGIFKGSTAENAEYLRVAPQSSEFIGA
Test: Inhibition of EGFR (d746-750 C797S) biochemical enzymatic activity (HTRF)
Conditions: EGFR Del19-C797S, 1 mM ATP, 1 h, room temperature, read-out: IC50 (nM) @Del19-C797S
Label label 1 when IC50 is strictly below 6 nM; otherwise label label 0.

The examples below pair each entry with its known result.
INSERT INTO results (compound, label_value) VALUES
  ('CN1CCC12CCN(c1ccc3nc4n(c3c1)C13CCC(CC1)CN(CCOc1c(cnn1C)-c1cc(cn(C)c1=O)C(=O)N4)C3)CC2', 'label 1'),
  ('CN1CCC2(CC1)CCN(c1ccc3nc4n(c3c1)C13CCC(CN(CCOc5c(cnn5C)-c5cc(cn(C)c5=O)C(=O)N4)C1)C3)C2 (single isomer, unassigned) [Example A88A]', 'label 0'),
  ('CN(C)CCN(C)c1ccc2nc3n(c2c1)C12CCC(CN(CCOc4c(cnn4C)-c4cc(cn(C)c4=O)C(=O)N3)C1)C2 (single isomer, unassigned) [Example A85A]', 'label 0'),
  ('CCn1ncc2c1OCCC[C@@H](C)Cn1c(nc3ccc(N4CCN(C)CC4)cc31)NC(=O)c1cc-2c(=O)n(C)c1', 'label 1'),
  ('C[C@@H]1CCCOc2c(cnn2C)-c2cc(cn(C)c2=O)C(=O)Nc2nc3ccc(N4CC5(CCN(C)CC5(F)F)C4)cc3n2C1', 'label 1');

Read the next record carefully.
Take the compound C[C@@H]1CCCOc2c(cnn2C2CC2)-c2cc(cn(C)c2=O)C(=O)Nc2nc3ccc(N4CCN(C)CC4)cc3n2C1 and say whether its IC50 is less than 6 nM. label 0
